biological target: T1, native human ApoC3 (human, UniProt P02656 21-99); test: SPR, ApoC3 over captured IgG1, pH 5.5
T1 construct: also called nhuApoC3; native huApoC3
T1 sequence (P02656 21-99): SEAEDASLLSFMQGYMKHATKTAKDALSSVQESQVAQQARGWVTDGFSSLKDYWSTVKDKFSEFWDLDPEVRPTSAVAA

Binder: mAb5 (antibody, IgG1, V domains shown, Produced as full length IgG1 (kappa) in ExpiCHO-S cells; also called humanized anti-ApoC3 antibody mAb5) VH: QLVESGGGLVQPGGSLRLSCAASGFTFGTYSMRWVRQAPGKGLEWVSSIHTEGGGTAYRDSVKGRFTISRDNAKNTLYLQMNSLRAEDTAVYYCVIAGYSDWGQGTLVTVSS VL: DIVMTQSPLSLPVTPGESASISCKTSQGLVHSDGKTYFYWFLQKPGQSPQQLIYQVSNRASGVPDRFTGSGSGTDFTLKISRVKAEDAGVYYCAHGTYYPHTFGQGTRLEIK
Ka: 2.45e+06 M⁻¹
--
Binder: mAb7 (antibody, V domains shown, Produced as full length IgG1 (kappa) in ExpiCHO-S cells; also called humanized anti-ApoC3 antibody mAb7) VH: QLVESGGGLVQPGGSLRLSCAASGFTFSTYSMRWVRQAPGKGLEWVSSIHTGGGGTAYRDSVKGRFTISRDNAKNTLYLQMNNLRAEDTAIYYCVIAGYSDWGQGTLVTVSS VL: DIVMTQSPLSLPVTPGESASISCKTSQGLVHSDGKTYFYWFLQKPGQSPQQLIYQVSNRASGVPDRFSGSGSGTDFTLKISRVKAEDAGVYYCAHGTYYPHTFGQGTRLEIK
Ka: 1.71e+06 M⁻¹
